Organism: Rattus norvegicus
method-description: Inhibition of rat recombinant geranylgeranyltransferase type I expressed in Escherichia coli assessed as residual enzyme activity for geranylgeranylation of RhoA at 50 uM incubated for 30 mins in presence of [3H]GGPP by scintillation counting assay relative to control
Mark each entry Fulfilled if its Activity sits below 9%, and Not fulfilled for all others.

Consider the worked cases shown below.
C=CCS[C@H]1[C@@H](C(=O)O)[C@H](c2ccc(OC)c(OC)c2)N(S(=O)(=O)c2ccc(C)cc2)[C@@H]1CCCCCC | Fulfilled
Cc1ccc(S(=O)(=O)N2C[C@@H](C(=O)O)[C@H](Sc3ccc(Cl)cc3)C[C@H]2c2ccccc2)cc1 | Not fulfilled
Cc1ccc(S(=O)(=O)N2[C@H](CC3CCCC3)[C@@H](SCCC(=O)OC(C)(C)C)[C@@H](C(=O)O)[C@@H]2c2cccc(F)c2)cc1 | Fulfilled
C=CCS[C@H]1[C@@H](C(=O)O)[C@H](c2ccc(Br)cc2)N(S(=O)(=O)c2ccc(C)cc2)[C@@H]1CCC | Fulfilled
Cc1ccc(S(=O)(=O)N2C[C@@H](C(=O)O)[C@H](SCc3ccc(Cl)cc3)C[C@H]2c2ccc(Cl)cc2)cc1 | Fulfilled

**Q:** Record O=C(O)C1=CC[C@@H](c2ccc(Cl)cc2)N(S(=O)(=O)c2ccc(Cl)cc2)[C@H]1c1cccc(Cl)c1 : is its Activity strictly below 9%?
**A:** Not fulfilled

**Q:** Record Cc1ccc(S(=O)(=O)N2C[C@@H](C(=O)O)[C@H](Sc3ccccc3)C[C@H]2c2ccccc2F)cc1 : is its Activity strictly below 9%?
**A:** Fulfilled

**Q:** Record CCOc1ccc([C@@H]2C[C@@H](SCCc3ccccc3)[C@H](C(=O)O)CN2S(=O)(=O)c2ccc(C)cc2)cc1 : is its Activity strictly below 9%?
**A:** Not fulfilled

**Q:** Record COc1ccc([C@@H]2C[C@@H](SCCc3ccccc3)[C@H](C(=O)O)CN2S(=O)(=O)c2ccccc2)cc1 : is its Activity strictly below 9%?
**A:** Not fulfilled

**Q:** Record Cc1ccc([C@@H]2C[C@@H](Sc3ccc(Cl)cc3)[C@H](C(=O)O)CN2S(=O)(=O)c2ccc(Cl)cc2)cc1 : is its Activity strictly below 9%?
**A:** Fulfilled

**Q:** Record Cc1ccc(S(=O)(=O)N2[C@@H](c3cccc(C)c3)C(C(=O)O)=CC[C@H]2c2ccc(Cl)c(Cl)c2)cc1 : is its Activity strictly below 9%?
**A:** Not fulfilled

**Q:** Record Cc1ccc(S(=O)(=O)N2[C@@H](c3cccc(F)c3)C(C(=O)O)=CC[C@H]2c2cccc(Br)c2)cc1 : is its Activity strictly below 9%?
**A:** Not fulfilled

**Q:** Record Cc1ccccc1S(=O)(=O)N1[C@H](CC2CCCC2)[C@@H](SCCC(=O)OC(C)(C)C)[C@@H](C(=O)O)[C@@H]1c1ccc(Cl)cc1 : is its Activity strictly below 9%?
**A:** Fulfilled
